# IC50, inhibition of ligand signalling, A-204 reporter gene assay (conditioned media) values compiled below
tested-on: T1, Growth and Differentiation Factor-11 (GDF11) (UniProt O95390 299-407)
T1 sequence (looked up): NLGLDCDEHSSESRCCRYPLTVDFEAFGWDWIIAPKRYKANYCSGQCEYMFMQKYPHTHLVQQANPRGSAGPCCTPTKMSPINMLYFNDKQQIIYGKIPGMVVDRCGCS
assay-protocol: cell-based or functional assay
Write down the numeric answer in µg/mL and omit the unit.

- binder: "ActRIIB(22-131)-hFc (Fc fusion, not shown: a dimerising Fc or GST) GEAETRECIYYNANWELERTNQSGLERCEGEQDKRLHCYASWRNSSGTIELVKKGCWLDDFNCYDRQECVATEENPQVYFCCCEGNFCNERFTHLPEAGGPEVTYEPPPT"
  value-measured: 0.071
- binder: "ActRIIB(20-128)-hFc (Fc fusion, not shown: a dimerising Fc or GST) GRGEAETRECIYYNANWELERTNQSGLERCEGEQDKRLHCYASWRNSSGTIELVKKGCWLDDFNCYDRQECVATEENPQVYFCCCEGNFCNERFTHLPEAGGPEVTYEP"
  value-measured: 0.13
- binder: "ActRIIB(20-132)-hFc (Fc fusion, not shown: a dimerising Fc or GST) GRGEAETRECIYYNANWELERTNQSGLERCEGEQDKRLHCYASWRNSSGTIELVKKGCWLDDFNCYDRQECVATEENPQVYFCCCEGNFCNERFTHLPEAGGPEVTYEPPPTA"
  value-measured: 0.087

Continue with the next binder.
Entry under review: ActRIIB(24-131)-hFc (Fc fusion, not shown: a dimerising Fc or GST) AETRECIYYNANWELERTNQSGLERCEGEQDKRLHCYASWRNSSGTIELVKKGCWLDDFNCYDRQECVATEENPQVYFCCCEGNFCNERFTHLPEAGGPEVTYEPPPT . Reported IC50, inhibition of ligand signalling, A-204 reporter gene assay (conditioned media)?
0.069
